Listing of entries alongside the reported melting temperature.
Test system: HeLa Kyoto
Test Protocol: melting temperature (median over replicates), in situ; higher = more thermally stable
Stated Conditions: cell cycle stage: mitosis
Remember to quote the unit after the number.

Some entries whose results are on file:
[
  {
    "Sequence Entry": "MATSVLCCLRCCRDGGTGHIPLKEMPAVQLDTQHMGTDVVIVKNGRRICGTGGCLASAPLHQNKSYFEFKIQSTGIWGIGVATQKVNLNQIPLGRDMHSLVMRNDGALYHNNEEKNRLPANSLPQEGDVVGITYDHVELNVYLNGKNMHCPASGIRGTVYPVVYVDDSAILDCQFSEFYHTPPPGFEKILFEQQIF [SPRYD7]",
    "Assay Result": "54.2 °C"
  },
  {
    "Sequence Entry": "MATALALRSLYRARPSLRCPPVELPWAPRRGHRLSPADDELYQRTRISLLQREAAQAMYIDSYNSRGFMINGNRVLGPCALLPHSVVQWNVGSHQDITEDSFSLFWLLEPRIEIVVVGTGDRTERLQSQVLQAMRQRGIAVEVQDTPNACATFNFLCHEGRVTGAALIPPPGGTSLTSLGQAAQ [NDUFAF3]",
    "Assay Result": "53.5 °C"
  }
]

Shift focus to the following entry.
*Q* What does the data say about its melting temperature? Entry: MAAAAKPNNLSLVVHGPGDLRLENYPIPEPGPNEVLLRMHSVGICGSDVHYWEYGRIGNFIVKKPMVLGHEASGTVEKVGSSVKHLKPGDRVAIEPGAPRENDEFCKMGRYNLSPSIFFCATPPDDGNLCRFYKHNAAFCYKLPDNVTFEEGALIEPLSVGIHACRRGGVTLGHKVLVCGAGPIGMVTLLVAKAMGAAQVVVTDLSATRLSKAKEIGADLVLQISKESPQEIARKVEGQLGCKPEVTIECTGAEASIQAGIYATRSGGNLVLVGLGSEMTTVPLLHAAIREVDIKGVFRYCNTWPVAISMLASKSVNVKPLVTHRFPLEKALEAFETFKKGLGLKIMLKCDPSDQNP [SORD]
*A* 57 °C

====

System: HeLa Kyoto;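 note: HeLa Kyoto cells synchronized by double thymidine or nocodazole block, proteins quantified by TMT10plex mass spectrometry, three independent biological replicates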
Test Protocol: melting temperature (median over replicates), in situ; higher = more thermally stable
Stated Conditions: cell cycle stage: G1/S
Measured Attribute: melting temperature (°C)
Give just the numeric value; °C need not be written.

[
  {
    "Sequence Entry": "MAAPEAPPLDRVFRTTWLSTECDSHPLPPSYRKFLFETQAADLAGGTTVAAGNLLNESEKDCGQDRRAPGVQPCRLVTMTSVVKTVYSLQPPSALSGGQPADTQTRATSKSLLPVRSKEVDVSKQLHSGGPENDVTKITKLRRENGQMKATDTATRRNVRKGYKPLSKQKSEEELKDKNQLLEAVNKQLHQKLTETQGELKDLTQKVELLEKFRDNCLAILESKGLDPALGSETLASRQESTTDHMDSMLLLETLQEELKLFNETAKKQMEELQALKVKLEMKEERVRFLEQQTLCNNQVNDLTTALKEMEQLLEM [KNSTRN]",
    "Target Desc": "HeLa Kyoto",
    "Measured Attribute": "melting temperature",
    "Assay Result": 48.7
  }
]

*Q* What does the data say about its melting temperature? Entry: MAAPGPALCLFDVDGTLTAPRQKITKEMDDFLQKLRQKIKIGVVGGSDFEKVQEQLGNDVVEKYDYVFPENGLVAYKDGKLLCRQNIQSHLGEALIQDLINYCLSYIAKIKLPKKRGTFIEFRNGMLNVSPIGRSCSQEERIEFYELDKKENIRQKFVADLRKEFAGKGLTFSIGGQISFDVFPDGWDKRYCLRHVENDGYKTIYFFGDKTMPGGNDHEIFTDPRTMGYSVTAPEDTRRICELLFS [PMM2]
*A* 53

*Q* Follow-up item: MACAEFSFHVPSLEELAGVMQKGLKDNFADVQVSVVDCPDLTKEPFTFPVKGICGKTRIAEVGGVPYLLPLVNQKKVYDLNKIAKEIKLPGAFILGAGAGPFQTLGFNSEFMPVIQTESEHKPPVNGSYFAHVNPADGGCLLEKYSEKCHDFQCALLANLFASEGQPGKVIEVKAKRRTGPLNFVTCMRETLEKHYGNKPIGMGGTFIIQKGKVKSHIMPAEFSSCPLNSDEEVNKWLHFYEMKAPLVCLPVFVSRDPGFDLRLEHTHFFSRHGEGGHYHYDTTPDIVEYLGYFLPAEFLYRIDQPKETHSIGRD [C11ORF54]
*A* 55.7
